Exercise: state measured growth for each of the compounds provided.
Test system: OVCAR-4 ovarian
Experiment: NCI-60 one-dose screen, 48 h (100 = growth as untreated, 0 = no growth, -100 = all killed)
Settings: 10 µM unless noted
Protocol: Growth inhibition of the OVCAR-4 human tumor cell line is measured as a screen for anti-cancer activity. Cells are grown in 96 well plates and exposed to the test compound for 48 hours. Compounds are tested at a single concentration, which is 10^-5 M for most compounds. The reported endpoint is percent growth (GI% or GIPRCNT), where numbers from 0 - 100% represent growth inhibition, and numbers from -100% - 0 represent cell death. For example, a value of 40 represents 60% growth inhibition. […]
Compounds without any hit were thinned out: in the full panel of roughly 83,000, 20% have a hit.
Numbers only, in %.

In the examples that follow, each entry is paired with its recorded growth.
>>> test_result("COc1ccc(/C=C/C(=O)/C=C(/C=C/c2ccc(OC)c(OC)c2)OB(F)F)cc1OC")
44.8
>>> test_result("COc1cc(NC(=O)Nc2cnc(Nc3ccc(N4CCOCC4)cc3)nc2Oc2ccc(F)cc2)cc(OC)c1")
60
>>> test_result("Cc1cccc(C)c1NCc1nnc(-c2ccc(O)cc2)o1")
99

Give growth for each listed item.
1. COC(=O)/C=C/c1cc(OC)c2c(c1)[C@@H](C(=O)OC)[C@H](c1ccc(OC)c(OC)c1)O2
2. C=C(C)[C@@H]1CC[C@]2(C(N)=O)CC[C@]3(C)[C@H](CC[C@@H]4[C@@]5(C)CCCNC(C)(C)[C@@H]5CC[C@]43C)[C@@H]12
3. CC(C)(C)c1nn(-c2ccccc2)c2c1COCN2Cc1ccc(Cl)cc1
4. COc1ccc(NC(=O)Nc2ccc(Nc3nc(C)cc(Nc4ccc(C)cc4)n3)cc2)cc1
5. C=C(C)[C@@H]1CC[C@]2(C(=O)OCCCC[P+](c3ccccc3)(c3ccccc3)c3ccccc3)CC[C@]3(C)[C@H](CC[C@@H]4[C@@]5(C)CC[C@H](OC(=O)C(Cl)Cl)C(C)(C)[C@@H]5CC[C@]43C)[C@@H]12
6. COc1ccc2nc(-c3ccc(Cl)cc3)cc(C(=O)N3N=C(c4ccc(N)cc4)CC3c3ccccc3)c2c1 (stereo unspecified)
7. O=C1NC(SCc2ccc(F)cc2)=N/C1=C/c1cccc(OCc2ccc(Cl)cc2)c1
8. C=C1C(=O)O[C@H]2[C@H]1CC/C(COC(=O)CCCCCCCC(=O)OC/C1=C/CC[C@@]3(C)O[C@H]3[C@H]3OC(=O)C(=C)[C@@H]3CC1)=C\CC[C@@]1(C)O[C@@H]21

Key:
1: 42.6; 2: 83.6; 3: 77.2; 4: -87.1; 5: -0.103; 6: 65.8; 7: -48.4; 8: 26.7

Each compound below has a recorded value; state its growth.
1. Cc1nnc(/N=C2\NC(=O)/C(=C/c3ccsc3)S2)s1
2. Cc1cc(NC(=O)CNc2nc(Oc3ccc(F)cc3)nc(-c3ccc(F)cc3)n2)ccc1Cl
3. CCOC(=O)C1=C(C)n2nc(CC#N)c(C#N)c2NC1c1ccc(CC)cc1 (stereo unspecified)
4. Cc1nccc2c3ccc(OCc4cn(-c5ccc(Br)cc5)nn4)cc3n(CC(C)C)c12
5. O=C1NC(c2ccc(F)cc2)N=C2C(c3ccccc3)=NOC12 (stereo unspecified)
6. CC(=O)ON1CCCC(P(=O)(OCOC(=O)C(C)(C)C)OCOC(=O)C(C)(C)C)C1=O (stereo unspecified)

Key:
90.6
105
93.2
58.8
105
13.3

Lab note: each compound below needs its growth filled in.
1. CCCCc1ccc(N=Nc2ccc(OCC[N+](C)(C)C)cc2)cc1
2. COc1ccc(-c2nnc(N3CCN(C(=O)CN4CCN(c5ccccc5)CC4)CC3)nc2-c2ccc(OC)cc2)cc1

Key:
1: 71.8; 2: 24.4

Batch request: growth per item, same order as input.
1. COc1ccc(-n2nc(C(=O)NCC(=O)O)nc2-c2ccccc2)cc1
2. C=C(C)[C@@H]1CC[C@]2(C(=O)O)CC[C@]3(C)[C@H](CC[C@@H]4[C@@]5(C)C[C@@H](CC#Cc6ccccc6)C(=O)C(C)(C)[C@@H]5CC[C@]43C)[C@@H]12
3. c1ccc(-c2n(Cc3ccc4ccccc4n3)cc[n+]2Cc2ccc3ccccc3n2)cc1
4. C[C@H](Oc1cc(-c2cnn(C3CCNCC3)c2)cnc1N)c1c(Cl)ccc(F)c1Cl
5. O=C(/C(=C/c1ccc([N+](=O)[O-])cc1)SCc1ccc(Cl)cc1)c1ccc(F)cc1

Key:
[111, 41.3, 32.9, 66.7, 60.9]

Hi there! I need growth for each item below, if you can.
1. O=C(/C(=C/c1ccc([N+](=O)[O-])cc1)SCc1ccc(F)cc1)c1ccc(Cl)cc1
2. CC(=O)O[C@@H]1C[C@]2(C)[C@H]3[C@H](O)C[C@@H]4C5=CC(C)(C)CC[C@]5(C)CC[C@@]4(C)[C@]3(C)CC[C@H]2C(C)(C)[C@H]1O

Key:
[57.8, 106]

Value source: PubChem BioAssay (NCI)
